# test details: Solubility study of Form A in buffers, water and biorelevant media (suspension shaken 24 hours at 25° C., filtrate by UPLC)
# Assay type: physicochemical
# experimental context: pH 9.0 buffer, 25 °C, pH 9, aqueous buffer, thermodynamic from solid, about 24 hours, mean ± spread of three replicates
readout: solubility at 24 h (µg/mL)
Entry rule: numbers only, all in µg/mL.

**Q:** Specify measured solubility at 24 h for Cc1cc(N2CC3CCC(C2)C3Nc2nc3n(n2)CCCC[C@H]3c2ccc(F)c(F)c2F)ncn1 (stereo partly shown) [Form A] .
**A:** 6

* * *

# test details: Solubility study of Form A in buffers, water and biorelevant media (suspension shaken 24 hours at 25° C., filtrate by UPLC)
# Format: physicochemical
# experimental context: FeSSIF, 25 °C, thermodynamic from solid, about 24 hours, mean ± spread of three replicates
readout: solubility at 24 h
Form field: result (number plus unit)

**Q:** Given Cc1cc(N2CC3CCC(C2)C3Nc2nc3n(n2)CCCC[C@H]3c2ccc(F)c(F)c2F)ncn1 (stereo partly shown) [Form A] , respond with its solubility at 24 h.
**A:** 618 µg/mL
